Assay: inhibitors of mutant huntingtin aggregation, primary screen, imaging, exon1htt(103Q)mCFP cells, high-content imaging (AID 483);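 further: compound exposure lasted 3 days before fixation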
Conditions: exon1htt(103Q)mCFP cell line, aggregate imaging, at 2 µM
Calls of active or inactive are those of the source.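 How the source made its calls: active means visual image review flags a hit and inhibition of aggregation exceeds 20%; inconclusive means visual hit but inhibition at or below 20%; inactive means no hit on visual image review.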
Classes used: Y (active), N (inactive)

# compound, assigned.label
rows = [
    ("O=C(NC1CCCc2ccccc21)c1ccc(CNc2c(N3CCOCC3)c(=O)c2=O)cc1 (centres undefined)", "Y"),
    ("O=C(NC(=O)c1cccc(F)c1)OC[C@@H]1CCCN2CCCC[C@H]12", "N"),
    ("Cc1nn(C)c(C)c1CN(C)C(=O)c1cc2nc(-c3ccco3)cc(C(F)(F)F)n2n1", "N"),
    ("COc1ccc(Br)cc1S(=O)(=O)N1CC(C)OC(C)C1 (centres undefined)", "N"),
    ("Cn1c(SCCN2CCCCC2)nnc1-c1ccccc1Br", "N"),
    ("O=C(OCCN(CCOC(=O)c1ccncc1)S(=O)(=O)c1cccs1)c1ccncc1", "N"),
    ("Cc1csc2nc(CSc3ccc(Cl)cc3)cn12", "N"),
    ("CCCCOCCCNC(=O)c1ccc(NC(C)=O)cc1", "N"),
    ("CCC1(C)Cc2c(C#N)c(N)n(N)c(=S)c2CO1 (centres undefined)", "N"),
    ("C/C=C(\\CS(=O)(=O)c1ccccc1)S(=O)(=O)c1ccccc1", "N"),
    ("CCN(CC)CCn1c(OC)cc(=O)[nH]c1=O", "N"),
    ("CCOC(=O)C1CCN(C(=O)C2(NC(=O)Nc3ccccc3Cl)CCCCC2)CC1", "N"),
    ("CC(=O)N1CCC(N(C(=O)Nc2ccc(C)c(C)c2)C2CCCC2)CC1", "N"),
    ("CCCCN(C(=O)c1ccc(Cl)cc1)C1CC2CCC(C1)N2C (centres undefined)", "N"),
    ("O=S(=O)(Nc1ccc2c(c1)OCO2)c1ccc(Br)s1", "N"),
    ("COCCN(C(=O)c1csnn1)C(C(=O)NC(C)(C)C)c1cccc(OC)c1 (centres undefined)", "N"),
    ("N#CCOc1nc(N2CCOCC2)nc(N2CCOCC2)n1", "N"),
    ("CC(C)Cn1c(N)c(C(=O)COC(=O)c2ccc3c(c2)OCCO3)c(=O)n(C)c1=O", "N"),
    ("Cc1ccc(NC(=O)CCN2CCc3ccccc3C2)cc1", "N"),
    ("COc1cccc(-c2cc(C(=O)N3CCCCCC3)no2)c1", "N"),
    ("CCCc1cc(=O)oc2c(C)c3occ(C)c3cc12", "N"),
    ("CCOc1ncccc1C(=O)Nc1ccc(Cl)cc1", "N"),
    ("C=C(Cl)COc1ccc2c(C)cc(=O)oc2c1", "N"),
    ("O=c1c[n+]([O-])c2ccccc2n1OCc1c(F)cccc1F", "N"),
]
